Reference source: ChEMBL document CHEMBL1201862

- Tested on: BT-549
- experiment.notes: NCI tumour cell line growth inhibition, 48 h
Activity calls are given as the source filed them. Rule as the data show it: active = GI50 up to about 1.1 µM and inactive = higher.
Choose one outcome from this list and give only that: T = active, F = inactive

// return assay outcome for COC(=O)c1cc(C#N)[nH]c1-c1cccs1
F

Answer briefly: the call reported for O=C(NCCCN(CCCCN(CCCNC(=O)C(F)(F)F)Cc1ccc2ccccc2c1)Cc1ccc2ccccc2c1)C(F)(F)F in this assay.
F

Query: recorded result category for S=C(N/N=C(/c1ccccc1)c1ccccn1)N(Cc1ccccn1)Cc1ccccn1 in this test
T

Write down the call the test reported for this molecule. Item: Cc1ccc(NCc2nnc3c(-c4ccccc4)nc4ccccc4n23)cc1
F

For COc1ccc(-c2[nH]c(-c3ccc(OC)cc3)c(-c3ccccn3)c2-c2ccccn2)cc1 , what call appears in the results of this test?
F

Which outcome was assigned to O=C1c2cc3c(cc2CC1Cc1ccc2c(c1)CCC2)CCC3 (stereo unspecified) in this test?
F

Test call for this molecule, please: O=Nn1c2ccccc2c2cc([N+](=O)[O-])ccc21
F

Called result for COCCn1cnc2c(Cl)nc(Nc3ccccc3)nc21
F

State the result this test recorded for CN1CCN(C(=S)N(C)C(=O)c2ccco2)CC1 .
F

Which result was noted for this molecule in the test: CN(C)CCNc1nc2c(c(=O)n(C)c(=O)n2C)n1C
F

# fetch the recorded call for CN(C)CCCNc1ccnc2cc([N+](=O)[O-])ccc12 here
F
